# Experimental system: Caspase-8 (UniProt Q14790 217-479)
# Sequence (Q14790 217-479 limits assumed): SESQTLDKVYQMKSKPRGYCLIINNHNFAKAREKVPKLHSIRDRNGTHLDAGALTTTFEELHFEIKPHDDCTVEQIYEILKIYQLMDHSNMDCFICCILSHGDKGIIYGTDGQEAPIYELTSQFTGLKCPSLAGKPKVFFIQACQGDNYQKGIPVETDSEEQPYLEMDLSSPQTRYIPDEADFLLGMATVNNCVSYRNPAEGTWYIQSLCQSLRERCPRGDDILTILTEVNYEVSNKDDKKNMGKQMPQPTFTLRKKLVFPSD
# Test name: cell-based or functional assay
Numbered stars: 1 amine (or outer) side, 2 acyl side, 3 side chain; on linkers, the order of the positions; unused ones are H or OH. Square brackets hold non-standard residues; d marks the D form. * marks the point of attachment. AAsp = aza-Asp, O=C(N(CC(=O)[*:3])N[*:1])[*:2]; Cbz = O=C(OCc1ccccc1)*
Each entry below lists one item and its recorded k2 value.
Write the value in M⁻¹ s⁻¹ as a bare number.

{"Binder": "Cbz-DEV[AAsp]-{CH═CH‑CO‑tetrahydroquinoline} [Cbz-Asp-Glu-Val-AAsp-CH═CH-CON-tetrahydroquinoline]", "Unit annotation": "M⁻¹ s⁻¹", "k2": 118000}
{"Binder": "Cbz-DEV[AAsp]-{CH═CH‑CONHCH2CH2Ph} [Cbz-Asp-Glu-Val-AAsp-CH═CH-CONHCH2CH2Ph]", "Unit annotation": "M⁻¹ s⁻¹", "k2": 129000}

Could you now consider this next binder?
Identify the reported k2 for the following entry. Cbz-DEV[AAsp]-{CH═CH‑CONHCH2‑4‑F‑Ph} [Cbz-Asp-Glu-Val-AAsp-CH═CH-CONHCH2-4-F-Ph]
85100
